Test system: second monoclonal antibody against hCG
Where a SMILES comes first, the peptide text is derived from it. [ ]: non-standard residue; d: D form. βAla = NCCC(=O)O
Lab note: compare Krel (relative binding affinity) with 2, writing Condition met if less and Condition not met if equal or more.

Solved entries (count: 3):
CC[C@H](C)[C@H](NC(=O)[C@@H]1CCCN1C(=O)CNC(=O)[C@H](C)NC(=O)[C@H](CO)NC(=O)CNC(=O)[C@H](CO)NC(=O)CN)C(=O)N[C@@H](Cc1ccc(O)cc1)C(=O)N[C@H](C(=O)N[C@@H](Cc1ccccc1)C(=O)NCC(=O)NCCC(=O)O)C(C)C [SEQ ID NO: 19] (H-GSGSAGPIYVFG[βAla]-OH); Condition not met
C[C@H](NC(=O)[C@H](CO)NC(=O)CNC(=O)[C@H](CO)NC(=O)CN)C(=O)NCC(=O)N1CCC[C@H]1C(=O)N[C@@H](CCCNC(=N)N)C(=O)N[C@@H](Cc1ccc(O)cc1)C(=O)N[C@@H](CC(N)=O)C(=O)N[C@@H](Cc1ccccc1)C(=O)NCC(=O)NCCC(=O)O [SEQ ID NO: 21] (H-GSGSAGPRYNFG[βAla]-OH); Condition met
CSCC[C@H](NC(=O)[C@H](Cc1ccc(O)cc1)NC(=O)[C@H](CCC(N)=O)NC(=O)[C@@H]1CCCN1C(=O)CNC(=O)[C@H](C)NC(=O)[C@H](CO)NC(=O)CNC(=O)[C@H](CO)NC(=O)CN)C(=O)N[C@@H](Cc1ccccc1)C(=O)NCC(=O)NCCC(=O)O [SEQ ID NO: 23] (H-GSGSAGPQYMFG[βAla]-OH); Condition met

Task: API: query returns whether the compound falls strictly under 2 in Krel (relative binding affinity). Query: CC[C@H](C)[C@H](NC(=O)[C@@H]1CCCN1C(=O)CNC(=O)[C@H](C)NC(=O)[C@H](CO)NC(=O)CNC(=O)[C@H](CO)NC(=O)CN)C(=O)N[C@@H](Cc1ccc(O)cc1)C(=O)N[C@@H](CC(=O)O)C(=O)N[C@@H](Cc1ccccc1)C(=O)NCC(=O)NCCC(=O)O [SEQ ID NO: 22] (H-GSGSAGPIYDFG[βAla]-OH)
Result: Condition met
